# experiment_notes: total protein half-life in vivo (active degradation + dilution); higher = more stable protein
# experimental_parameters: E. coli NCM3722 delta-smpB; growth: N-lim chemostat; doubling time 6 h
readout_type: total protein half-life in vivo (h)
Answer format: numeric, h implied, no suffix.

Supply recorded total protein half-life in vivo for "MSDMHSLLIAAILGVVEGLTEFLPVSSTGHMIIVGHLLGFEGDTAKTFEVVIQLGSILAVVVMFWRRLFGLIGIHFGRPLQHEGESKGRLTLIHILLGMIPAVVLGLLFHDTIKSLFNPINVMYALVVGGLLLIAAECLKPKEPRAPGLDDMTYRQAFMIGCFQCLALWPGFSRSGATISGGMLMGVSRYAASEFSFLLAVPMMMGATALDLYKSWGFLTSGDIPMFAVGFITAFVVALIAIKTFLQLIKRISFIPFAIYRFIVAAAVYVVFF" here.
5.89

Specify measured total protein half-life in vivo for "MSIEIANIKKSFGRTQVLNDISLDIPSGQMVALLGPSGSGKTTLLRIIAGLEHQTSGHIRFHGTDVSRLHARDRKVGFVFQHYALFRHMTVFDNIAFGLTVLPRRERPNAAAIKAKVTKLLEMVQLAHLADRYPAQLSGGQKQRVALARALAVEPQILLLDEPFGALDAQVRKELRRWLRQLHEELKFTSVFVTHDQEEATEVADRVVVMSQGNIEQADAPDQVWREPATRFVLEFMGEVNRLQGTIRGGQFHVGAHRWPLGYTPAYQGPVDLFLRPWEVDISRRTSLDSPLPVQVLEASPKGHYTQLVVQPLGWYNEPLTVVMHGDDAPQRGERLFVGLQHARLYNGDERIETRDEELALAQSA" .
2.01

====

# experiment_notes: total protein half-life in vivo (active degradation + dilution); higher = more stable protein
# experimental_parameters: wild type E. coli NCM3722; growth: P-lim chemostat; doubling time 6 h
readout_type: total protein half-life in vivo (h)
Entry rule: numbers only, all in h.

Quick one: give measured total protein half-life in vivo for "MKLNIRAQTAQNQHNNSPIVLVHGLFGSLDNLGVLARDLVNDHNIIQVDMRNHGLSPRDPVMNYPAMAQDLVDTLDAQQIDKATFIGHSMGGKAVMALTALASDRIDKLVAIDIAPVDYHVRRHDEIFAAINAVSESDAQTRQQAAAIMRQHLNEEGVIQFLLKSFVDGEWRFNVPVLWDQYPHIVGWEKIPAWDHPALFIPGGNSPYVSEQYRDDLLAQFPQARAHVIAGAGHWVHAEKPDAVLRAIRRYLND"
6.53

Dear colleague, please send me the reported total protein half-life in vivo for "MSDTNYAVIYDLHSHTTASDGCLTPEALVHRAVEMRVGTLAITDHDTTAAIAPAREEISRSGLALNLIPGVEISTVWENHEIHIVGLNIDITHPLMCEFLAQQTERRNQRAQLIAERLEKAQIPGALEGAQRLAQGGAVTRGHFARFLVECGKASSMADVFKKYLARGKTGYVPPQWCTIEQAIDVIHHSGGKAVLAHPGRYNLSAKWLKRLVAHFAEHHGDAMEVAQCQQSPNERTQLAALARQHHLWASQGSDFHQPCPWIELGRKLWLPAGVEGVWQLWEQPQNTTEREL" when you can.
2.72

Provide total protein half-life in vivo value for the following sequence: "MLKTIRKHGITLALFAAGSTGLTAAINQMTKTTIAEQASLQQKALFDQVLPAERYNNALAQSCYLVTAPELGKGEHRVYIAKQDDKPVAAVLEATAPDGYSGAIQLLVGADFNGTVLGTRVTEHHETPGLGDKIELRLSDWITHFAGKKISGADDAHWAVKKDGGDFDQFTGATITPRAVVNAVKRAGLYAQTLPAQLSQLPACGE"
5.82

====

# experiment_notes: total protein half-life in vivo (active degradation + dilution); higher = more stable protein
# experimental_parameters: E. coli NCM3722 delta-clpP; growth: N-lim chemostat; doubling time 6 h
Label rule met for high-side total protein half-life in vivo (at or above 5 h) and rule not met for low-side total protein half-life in vivo (below it).

API: above_or_equal(metric=total protein half-life in vivo, cutoff=5 h) for item "MTLTASSSSRAVTNSPVVVALDYHNRDDALAFVDKIDPRDCRLKVGKEMFTLFGPQFVRELQQRGFDIFLDLKFHDIPNTAAHAVAAAADLGVWMVNVHASGGARMMTAAREALVPFGKDAPLLIAVTVLTSMEASDLVDLGMTLSPADYAERLAALTQKCGLDGVVCSAQEAVRFKQVFGQEFKLVTPGIRPQGSEAGDQRRIMTPEQALSAGVDYMVIGRPVTQSVDPAQTLKAINASLQRSA"
rule met

Quick check, total protein half-life in vivo >= 5 h? "MKLKNTLLASALLSAMAFSVNAATELTPEQAAAVKPFDRVVVTGRFNAIGEAVKAVSRRADKEGAASFYVVDTSDFGNSGNWRVVADLYKADAEKAEETSNRVINGVVELPKDQAVLIEPFDTVTVQGFYRSQPEVNDAITKAAKAKGAYSFYIVRQIDANQGGNQRITAFIYKKDAKKRIVQSPDVIPADSEAGRAALAAGGEAAKKVEIPGVATTASPSSEVGRFFETQSSKGGRYTVTLPDGTKVEELNKATAAMMVPFDSIKFSGNYGNMTEVSYQVAKRAAKKGAKYYHITRQWQERGNNLTVSADLYK"
rule met

Determine whether this sequence has total protein half-life in vivo no lower than 5 h: MLILISPAKTLDYQSPLTTTRYTLPELLDNSQQLIHEARKLTPPQISTLMRISDKLAGINAARFHDWQPDFTPANARQAILAFKGDVYTGLQAETFSEDDFDFAQQHLRMLSGLYGVLRPLDLMQPYRLEMGIRLENARGKDLYQFWGDIITNKLNEALAAQGDNVVINLASDEYFKSVKPKKLNAEIIKPVFLDEKNGKFKIISFYAKKARGLMSRFIIENRLTKPEQLTGFNSEGYFFDEDSSSNGELVFKRYEQR [P0A8I3]
rule not met

Decide: total protein half-life in vivo of MTIHKKGQAHWEGDIKRGKGTVSTESGVLNQQPYGFNTRFEGEKGTNPEELIGAAHAACFSMALSLMLGEAGFTPTSIDTTADVSLDKVDAGFAITKIALKSEVAVPGIDASTFDGIIQKAKAGCPVSQVLKAEITLDYQLKS [P0C0L2] >= 5 h?
rule met

I'd appreciate it if you could say whether "MLKIIRAGMYTTVQDGGRHGFRQSGISHCGALDMPALRIANLLVGNDANAPALEITLGQLTVEFETDGWFALTGAGCEARLDDNAVWTGWRLPMKAGQRLTLKRPQHGMRSYLAVAGGIDVPPVMGSCSTDLKVGIGGLEGRLLKDGDRLPIGKSKRDSMEAQGVKQLLWGNRIRALPGPEYHEFDRASQDAFWRSPWQLSSQSNRMGYRLQGQILKRTTDRELLSHGLLPGVVQVPHNGQPIVLMNDAQTTGGYPRIACIIEADMYHLAQIPLGQPIHFVQCSLEEALKARQDQQRYFEQLAWRLHNEN" has total protein half-life in vivo at least equal to 5 h.
rule met

Is total protein half-life in vivo for "MTHFSQQDNFSVAARVLGALFYYAPESAEAAPLVAVLTSDGWETQWPLPEASLAPLVTAFQTQCEETHAQAWQRLFVGPWALPSPPWGSVWLDRESVLFGDSTLALRQWMREKGIQFEMKQNEPEDHFGSLLLMAAWLAENGRQTECEELLAWHLFPWSTRFLDVFIEKAEHPFYRALGELARLTLAQWQSQLLIPVAVKPLFR" at or above 5 h?
rule not met

====

# experiment_notes: total protein half-life in vivo (active degradation + dilution); higher = more stable protein
# experimental_parameters: E. coli NCM3722 delta-smpB; growth: N-lim chemostat; doubling time 6 h
Response key: class 1 means total protein half-life in vivo >= 4 h; class 0 means total protein half-life in vivo < 4 h.

Record "MKCPVCHQGEMVSGIKDIPYTFRGRKTVLKGIHGLYCVHCEESIMNKEESDAFMAQVKAFRASVNAETVAPEFIVKVRKKLSLTQKEASEIFGGGVNAFSRYEKGNAQPHPSTIKLLRVLDKHPELLNEIR" ; criterion: total protein half-life in vivo no lower than 4 h. Met?
class 0

Is the recorded value of total protein half-life in vivo equal to or greater than 4 h for this sequence? MMVIRPVERSDVSALMQLASKTGGGLTSLPANEATLSARIERAIKTWQGELPKSEQGYVFVLEDSETGTVAGICAIEVAVGLNDPWYNYRVGTLVHASKELNVYNALPTLFLSNDHTGSSELCTLFLDPDWRKEGNGYLLSKSRFMFMAAFRDKFNDKVVAEMRGVIDEHGYSPFWQSLGKRFFSMDFSRADFLCGTGQKAFIAELMPKHPIYTHFLSQEAQDVIGQVHPQTAPARAVLEKEGFRYRNYIDIFDGGPTLECDIDRVRAIRKSRLVEVAEGQPAQGDFPACLVANENYHHFRVVLVRTDPATERLILTAAQLDALKCHAGDRVRLVRLCAEEKTA [P0AE37]
class 0

Textbook exercise: given the entry MVDQAQDTLRPNNRLSDMQATMEQTQAFENRVLERLNAGKTVRSFLITAVELLTEAVNLLVLQVFRKDDYAVKYAVEPLLDGDGPLGDLSVRLKLIYGLGVINRQEYEDAELLMALREELNHDGNEYAFTDDEILGPFGELHCVAALPPPPQFEPADSSLYAMQIQRYQQAVRSTMVLSLTELISKISLKKAFQK [P0AF10] , state whether its total protein half-life in vivo is greater than or equal to 4 h.
class 0

Confirm if total protein half-life in vivo reported for the sequence "MSHLDNGFRSLTLQRFPATDDVNPLQAWEAADEYLLQQLDDTEIRGPVLILNDAFGALSCALAEHKPYSIGDSYISELATRENLRLNGIDESSVKFLDSTADYPQQPGVVLIKVPKTLALLEQQLRALRKVVTSDTRIIAGAKARDIHTSTLELFEKVLGPTTTTLAWKKARLINCTFNEPQLADAPQTVSWKLEGTDWTIHNHANVFSRTGLDIGARFFMQHLPENLEGEIVDLGCGNGVIGLTLLDKNPQAKVVFVDESPMAVASSRLNVETNMPEALDRCEFMINNALSGVEPFRFNAVLCNPPFHQQHALTDNVAWEMFHHARRCLKINGELYIVANRHLDYFHKLKKIFGNCTTIATNNKFVVLKAVKLGRRR" is 4 h or above.
class 1

For this sequence, is measured total protein half-life in vivo 4 h or higher? MRKSVIAIIIIVLVVLYMSVFVVKEGERGITLRFGKVLRDDDNKPLVYEPGLHFKIPFIETVKMLDARIQTMDNQADRFVTKEKKDLIVDSYIKWRISDFSRYYLATGGGDISQAEVLLKRKFSDRLRSEIGRLDVKDIVTDSRGRLTLEVRDALNSGSAGTEDEVTTPAADNAIAEAAERVTAETKGKVPVINPNSMAALGIEVVDVRIKQINLPTEVSEAIYNRMRAEREAVARRHRSQGQEEAEKLRATADYEVTRTLAEAERQGRIMRGEGDAEAAKLFADAFSKDPDFYAFIRSLRAYENSFSGNQDVMVMSPDSDFFRYMKTPTSATR [P0ABC3]
class 1

hey, is total protein half-life in vivo for this one >= 4 h? "MIDFGNFYSLIAKNHLSHWLETLPAQIANWQREQQHGLFKQWSNAVEFLPEIKPYRLDLLHSVTAESEEPLSAGQIKRIETLMRNLMPWRKGPFSLYGVNIDTEWRSDWKWDRVLPHLSDLTGRTILDVGCGSGYHMWRMIGAGAHLAVGIDPTQLFLCQFEAVRKLLGNDQRAHLLPLGIEQLPALKAFDTVFSMGVLYHRRSPLEHLWQLKDQLVNEGELVLETLVIDGDENTVLVPGDRYAQMRNVYFIPSALALKNWLKKCGFVDIRIADVSVTTTEEQRRTEWMVTESLADFLDPHDPGKTVEGYPAPKRAVLIARKP"
class 1

Hello, I need to know if MATIKDVAKRANVSTTTVSHVINKTRFVAEETRNAVWAAIKELHYSPSAVARSLKVNHTKSIGLLATSSEAAYFAEIIEAVEKNCFQKGYTLILGNAWNNLEKQRAYLSMMAQKRVDGLLVMCSEYPEPLLAMLEEYRHIPMVVMDWGEAKADFTDAVIDNAFEGGYMAGRYLIERGHREIGVIPGPLERNTGAGRLAGFMKAMEEAMIKVPESWIVQGDFEPESGYRAMQQILSQPHRPTAVFCGGDIMAMGALCAADEMGLRVPQDVSLIGYDNVRNARYFTPALTTIHQPKDSLGETAFNMLLDRIVNKREEPQSIEVHPRLIERRSVADGPFRDYRR [P0ACP7] has measured total protein half-life in vivo not below 4 h. Thanks!
class 1

Could you please find out whether MSDDNSHSSDTISNKKGFFSLLLSQLFHGEPKNRDELLALIRDSGQNDLIDEDTRDMLEGVMDIADQRVRDIMIPRSQMITLKRNQTLDECLDVIIESAHSRFPVISEDKDHIEGILMAKDLLPFMRSDAEAFSMDKVLRQAVVVPESKRVDRMLKEFRSQRYHMAIVIDEFGGVSGLVTIEDILELIVGEIEDEYDEEDDIDFRQLSRHTWTVRALASIEDFNEAFGTHFSDEEVDTIGGLVMQAFGHLPARGETIDIDGYQFKVAMADSRRIIQVHVKIPDDSPQPKLDE [P0AE78] has total protein half-life in vivo that meets 4 h or exceeds it?
class 1
